Tested on: Escherichia coli TOP10
Experiment: shrunken log2 fold change of peptide-encoding DNA abundance (4.5 h post-induction vs induction); higher = less antimicrobial activity (less host growth inhibition)
Conditions: time post-induction: 4.5 h; library: site-saturation at positions 5, 18, 19, 20
# reported shrunken log2 fold change; entries follow

>  <Seq>
RRIRSRPPRLPRPRPRPAHVPRP

>  <shrunken log2 fold change>
-0.0302

$$$$
>  <Seq>
RRIRLRPPRLPRPRPRPTVYPRP

>  <shrunken log2 fold change>
-0.146

$$$$
>  <Seq>
RRIRARPPRLPRPRPRPVHHPRP

>  <shrunken log2 fold change>
-0.0524

$$$$
>  <Seq>
RRIRQRPPRLPRPRPRPTRFPRP

>  <shrunken log2 fold change>
0.04

$$$$
>  <Seq>
RRIRNRPPRLPRPRPRPLNYPRP

>  <shrunken log2 fold change>
-0.29

$$$$
>  <Seq>
RRIRVRPPRLPRPRPRPKHAPRP

>  <shrunken log2 fold change>
0.133

$$$$
>  <Seq>
RRIRYRPPRLPRPRPRPMYLPRP

>  <shrunken log2 fold change>
-0.0959

$$$$
>  <Seq>
RRIRTRPPRLPRPRPRPKGKPRP

>  <shrunken log2 fold change>
0.34

$$$$
>  <Seq>
RRIRTRPPRLPRPRPRPWFTPRP

>  <shrunken log2 fold change>
0.00948

$$$$
>  <Seq>
RRIRYRPPRLPRPRPRPQDNPRP

>  <shrunken log2 fold change>
-0.024

$$$$
>  <Seq>
RRIRFRPPRLPRPRPRPQRCPRP

>  <shrunken log2 fold change>
0.08

$$$$
>  <Seq>
RRIRMRPPRLPRPRPRPWPPPRP

>  <shrunken log2 fold change>
1.09

$$$$
>  <Seq>
RRIRERPPRLPRPRPRPESDPRP

>  <shrunken log2 fold change>
-0.0699

$$$$
>  <Seq>
RRIRQRPPRLPRPRPRPAWMPRP

>  <shrunken log2 fold change>
0.0361

$$$$
>  <Seq>
RRIRHRPPRLPRPRPRPICWPRP

>  <shrunken log2 fold change>
0.0429

$$$$
>  <Seq>
RRIRTRPPRLPRPRPRPAGDPRP

>  <shrunken log2 fold change>
0.258

$$$$
>  <Seq>
RRIRSRPPRLPRPRPRPIDDPRP

>  <shrunken log2 fold change>
-0.00277

$$$$
>  <Seq>
RRIRGRPPRLPRPRPRPPQRPRP

>  <shrunken log2 fold change>
0.97

$$$$
>  <Seq>
RRIRTRPPRLPRPRPRPYFFPRP

>  <shrunken log2 fold change>
-0.684

$$$$
>  <Seq>
RRIRTRPPRLPRPRPRPAREPRP

>  <shrunken log2 fold change>
0.44

$$$$
>  <Seq>
RRIRIRPPRLPRPRPRPWKMPRP

>  <shrunken log2 fold change>
-1.13

$$$$
>  <Seq>
RRIRRRPPRLPRPRPRPIMNPRP

>  <shrunken log2 fold change>
-0.347

$$$$
>  <Seq>
RRIRSRPPRLPRPRPRPPPQPRP

>  <shrunken log2 fold change>
0.835

$$$$
>  <Seq>
RRIRCRPPRLPRPRPRPQMPPRP

>  <shrunken log2 fold change>
-0.0931

$$$$
>  <Seq>
RRIRLRPPRLPRPRPRPQVDPRP

>  <shrunken log2 fold change>
-0.136

$$$$
>  <Seq>
RRIRLRPPRLPRPRPRPHFPPRP

>  <shrunken log2 fold change>
2.38

$$$$
>  <Seq>
RRIRYRPPRLPRPRPRPWNEPRP

>  <shrunken log2 fold change>
-0.0429

$$$$
>  <Seq>
RRIRIRPPRLPRPRPRPWQMPRP

>  <shrunken log2 fold change>
0.0562

$$$$
>  <Seq>
RRIRCRPPRLPRPRPRPQSIPRP

>  <shrunken log2 fold change>
-0.394

$$$$
>  <Seq>
RRIRFRPPRLPRPRPRPTKTPRP

>  <shrunken log2 fold change>
-0.0652

$$$$
>  <Seq>
RRIRVRPPRLPRPRPRPECYPRP

>  <shrunken log2 fold change>
-0.035

$$$$
>  <Seq>
RRIRKRPPRLPRPRPRPPAAPRP

>  <shrunken log2 fold change>
0.932

$$$$

----------
# reported shrunken log2 fold change; entries follow
Tested on: Escherichia coli TOP10;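 further: peptides expressed intracellularly from a pBAD plasmid library in pooled LB shake-flask culture, induced with 0.3% L-arabinose, DNA abundance read by NGS, three biological replicates, DESeq2 with apeglm shrinkage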
Assay: shrunken log2 fold change of peptide-encoding DNA abundance (4.5 h post-induction vs induction); higher = less antimicrobial activity (less host growth inhibition)
Conditions: time post-induction: 4.5 h; library: site-saturation at positions 5, 18, 19, 20
Reported metric: shrunken log2 fold change

>  <Seq>
RRIRARPPRLPRPRPRPWEMPRP

>  <Reported metric>
shrunken log2 fold change

>  <Val>
0.00132

$$$$
>  <Seq>
RRIRRRPPRLPRPRPRPPVCPRP

>  <Reported metric>
shrunken log2 fold change

>  <Val>
0.592

$$$$
>  <Seq>
RRIRVRPPRLPRPRPRPCKHPRP

>  <Reported metric>
shrunken log2 fold change

>  <Val>
-0.483

$$$$
>  <Seq>
RRIRPRPPRLPRPRPRPHRCPRP

>  <Reported metric>
shrunken log2 fold change

>  <Val>
-0.299

$$$$
>  <Seq>
RRIRKRPPRLPRPRPRPNVDPRP

>  <Reported metric>
shrunken log2 fold change

>  <Val>
0.17

$$$$
>  <Seq>
RRIRARPPRLPRPRPRPFNWPRP

>  <Reported metric>
shrunken log2 fold change

>  <Val>
0.0857

$$$$
>  <Seq>
RRIRQRPPRLPRPRPRPRKEPRP

>  <Reported metric>
shrunken log2 fold change

>  <Val>
-0.0194

$$$$
>  <Seq>
RRIRYRPPRLPRPRPRPSAKPRP

>  <Reported metric>
shrunken log2 fold change

>  <Val>
-0.117

$$$$
>  <Seq>
RRIRVRPPRLPRPRPRPTEIPRP

>  <Reported metric>
shrunken log2 fold change

>  <Val>
0.221

$$$$
>  <Seq>
RRIRQRPPRLPRPRPRPECEPRP

>  <Reported metric>
shrunken log2 fold change

>  <Val>
0.028

$$$$
>  <Seq>
RRIRERPPRLPRPRPRPLTMPRP

>  <Reported metric>
shrunken log2 fold change

>  <Val>
-0.308

$$$$
>  <Seq>
RRIRKRPPRLPRPRPRPELTPRP

>  <Reported metric>
shrunken log2 fold change

>  <Val>
2.29

$$$$
>  <Seq>
RRIRARPPRLPRPRPRPYGFPRP

>  <Reported metric>
shrunken log2 fold change

>  <Val>
0.00293

$$$$
>  <Seq>
RRIRIRPPRLPRPRPRPYRSPRP

>  <Reported metric>
shrunken log2 fold change

>  <Val>
-0.186

$$$$
>  <Seq>
RRIRARPPRLPRPRPRPYNYPRP

>  <Reported metric>
shrunken log2 fold change

>  <Val>
1.34

$$$$
>  <Seq>
RRIRMRPPRLPRPRPRPYSDPRP

>  <Reported metric>
shrunken log2 fold change

>  <Val>
-0.329

$$$$
>  <Seq>
RRIRGRPPRLPRPRPRPNMIPRP

>  <Reported metric>
shrunken log2 fold change

>  <Val>
0.0819

$$$$
>  <Seq>
RRIRGRPPRLPRPRPRPQEMPRP

>  <Reported metric>
shrunken log2 fold change

>  <Val>
0.0954

$$$$
>  <Seq>
RRIRERPPRLPRPRPRPNRTPRP

>  <Reported metric>
shrunken log2 fold change

>  <Val>
-1.51

$$$$
>  <Seq>
RRIRARPPRLPRPRPRPMPNPRP

>  <Reported metric>
shrunken log2 fold change

>  <Val>
0.353

$$$$
>  <Seq>
RRIRPRPPRLPRPRPRPQAQPRP

>  <Reported metric>
shrunken log2 fold change

>  <Val>
0.143

$$$$
>  <Seq>
RRIRPRPPRLPRPRPRPKLMPRP

>  <Reported metric>
shrunken log2 fold change

>  <Val>
0.121

$$$$
>  <Seq>
RRIRTRPPRLPRPRPRPLRCPRP

>  <Reported metric>
shrunken log2 fold change

>  <Val>
0.108

$$$$
>  <Seq>
RRIRNRPPRLPRPRPRPILDPRP

>  <Reported metric>
shrunken log2 fold change

>  <Val>
-0.0452

$$$$
>  <Seq>
RRIRPRPPRLPRPRPRPPADPRP

>  <Reported metric>
shrunken log2 fold change

>  <Val>
0.593

$$$$
>  <Seq>
RRIRWRPPRLPRPRPRPTISPRP

>  <Reported metric>
shrunken log2 fold change

>  <Val>
0.21

$$$$
>  <Seq>
RRIRRRPPRLPRPRPRPAVKPRP

>  <Reported metric>
shrunken log2 fold change

>  <Val>
0.0474

$$$$
>  <Seq>
RRIRERPPRLPRPRPRPILNPRP

>  <Reported metric>
shrunken log2 fold change

>  <Val>
2.73

$$$$
>  <Seq>
RRIRIRPPRLPRPRPRPFPPPRP

>  <Reported metric>
shrunken log2 fold change

>  <Val>
-0.353

$$$$
>  <Seq>
RRIRQRPPRLPRPRPRPLESPRP

>  <Reported metric>
shrunken log2 fold change

>  <Val>
-0.0344

$$$$
>  <Seq>
RRIRYRPPRLPRPRPRPRWVPRP

>  <Reported metric>
shrunken log2 fold change

>  <Val>
-0.0064

$$$$
>  <Seq>
RRIRWRPPRLPRPRPRPQQGPRP

>  <Reported metric>
shrunken log2 fold change

>  <Val>
0.342

$$$$
